Molecular target: Acetylcholinesterase (Electrophorus electricus, UniProt O42275)
Sequence (O42275 whole entry): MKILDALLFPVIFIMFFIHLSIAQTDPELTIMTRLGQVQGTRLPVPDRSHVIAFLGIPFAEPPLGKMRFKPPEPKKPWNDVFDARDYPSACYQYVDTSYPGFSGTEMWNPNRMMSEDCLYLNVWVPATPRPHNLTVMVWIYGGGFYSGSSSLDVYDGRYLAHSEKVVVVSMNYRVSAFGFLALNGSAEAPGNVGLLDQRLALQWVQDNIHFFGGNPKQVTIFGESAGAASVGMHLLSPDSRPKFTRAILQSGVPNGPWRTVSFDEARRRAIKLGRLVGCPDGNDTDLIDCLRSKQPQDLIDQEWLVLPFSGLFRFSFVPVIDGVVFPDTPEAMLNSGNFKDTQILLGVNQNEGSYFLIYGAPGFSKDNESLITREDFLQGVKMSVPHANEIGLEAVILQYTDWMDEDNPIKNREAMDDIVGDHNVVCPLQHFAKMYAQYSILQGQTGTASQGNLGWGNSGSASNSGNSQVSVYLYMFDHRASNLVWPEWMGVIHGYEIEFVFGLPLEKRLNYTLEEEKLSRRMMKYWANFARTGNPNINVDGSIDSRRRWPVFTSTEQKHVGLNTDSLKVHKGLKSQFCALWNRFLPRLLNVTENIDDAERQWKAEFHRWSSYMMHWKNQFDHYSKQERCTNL
Assay: Inhibition of electric eel acetylcholinesterase using acetylthiocholine iodide as substrate preincubated for 10 mins before substrate addition after 15 mins by Ellman's method
We label by threshold. Values of IC50 strictly beneath 7 µM are T. Values of 7 µM and up are F.

Some solved entries appear below for comparison.
## Input Lab note: IC50 threshold 7 µM. Does this compound come in strictly under it? "COc1ccc(/C=C/C(=O)Nc2cc(OC)c(OC)c(OC)c2)cc1[N+](=O)[O-]"
## Output T

## Input Lab note: IC50 threshold 7 µM. Does this compound come in strictly under it? "COc1cc(NC(=O)/C=C/c2c(O)cccc2[N+](=O)[O-])cc(OC)c1OC"
## Output F

## Input Lab note: IC50 threshold 7 µM. Does this compound come in strictly under it? "COc1cc(NC(=O)/C=C/c2cccc(OCc3ccccc3)c2)cc(OC)c1OC"
## Output T

---
## Input Lab note: IC50 threshold 7 µM. Does this compound come in strictly under it? "COc1ccc(/C=C/C(=O)Nc2cc(OC)c(OC)c(OC)c2)cc1OCc1ccccc1"
## Output T

## Input Lab note: IC50 threshold 7 µM. Does this compound come in strictly under it? "COc1cc(NC(=O)/C=C/c2ccc(Cl)cc2)cc(OC)c1OC"
## Output F

---

Biological target: Acetylcholinesterase (Electrophorus electricus)
Assay: Inhibition of electric eel acetylcholinesterase using acetylthiocholine iodide as substrate preincubated for 10 mins before substrate addition after 15 mins by Ellman's method
Parameters: concentration or dose not given beside the values
quantity-name: inhibition (%)
// units = %; emit number, no label

Example compounds with recorded inhibition:
Input "COc1cc(NC(=O)/C=C/c2c(F)cccc2Cl)cc(OC)c1OC" . Output inhibition: 34.1

Input "C=CCOc1ccc(/C=C/C(=O)Nc2cc(OC)c(OC)c(OC)c2)cc1" . Output inhibition: 33.6

Input "COc1cc(NC(=O)/C=C/c2cccc(OC(C)=O)c2)cc(OC)c1OC" . Output inhibition: 29.2

Input "COc1cc(NC(=O)/C=C/c2ccc(O)cc2O)cc(OC)c1OC" . Output inhibition: 36.6

Input "COc1cc(NC(=O)/C=C/c2c(Cl)cccc2[N+](=O)[O-])cc(OC)c1OC" . Output inhibition: 34.2

---
Input "COc1cc(NC(=O)/C=C/c2cccc(O)c2O)cc(OC)c1OC" . Output inhibition: 31.2

---

Target: Acetylcholinesterase (Electrophorus electricus)
Assay: Inhibition of electric eel acetylcholinesterase using acetylthiocholine iodide as substrate preincubated for 10 mins before substrate addition after 15 mins by Ellman's method
Parameters: concentration or dose not given beside the values
quantity-name: inhibition (%)
// units = %; emit number, no label

Example compounds with recorded inhibition:
Input "COc1cc(NC(=O)/C=C/c2ccc(O)c(O)c2)cc(OC)c1OC" . Output inhibition: 36.4

Input "COc1cc(NC(=O)/C=C/c2cc(O)ccc2O)cc(OC)c1OC" . Output inhibition: 30.3

---
Input "COc1cc(NC(=O)/C=C/c2ccc(OC(C)=O)cc2)cc(OC)c1OC" . Output inhibition: 36.5

---

Target: Cholinesterase (Homo sapiens, UniProt P06276)
Sequence (P06276 whole entry): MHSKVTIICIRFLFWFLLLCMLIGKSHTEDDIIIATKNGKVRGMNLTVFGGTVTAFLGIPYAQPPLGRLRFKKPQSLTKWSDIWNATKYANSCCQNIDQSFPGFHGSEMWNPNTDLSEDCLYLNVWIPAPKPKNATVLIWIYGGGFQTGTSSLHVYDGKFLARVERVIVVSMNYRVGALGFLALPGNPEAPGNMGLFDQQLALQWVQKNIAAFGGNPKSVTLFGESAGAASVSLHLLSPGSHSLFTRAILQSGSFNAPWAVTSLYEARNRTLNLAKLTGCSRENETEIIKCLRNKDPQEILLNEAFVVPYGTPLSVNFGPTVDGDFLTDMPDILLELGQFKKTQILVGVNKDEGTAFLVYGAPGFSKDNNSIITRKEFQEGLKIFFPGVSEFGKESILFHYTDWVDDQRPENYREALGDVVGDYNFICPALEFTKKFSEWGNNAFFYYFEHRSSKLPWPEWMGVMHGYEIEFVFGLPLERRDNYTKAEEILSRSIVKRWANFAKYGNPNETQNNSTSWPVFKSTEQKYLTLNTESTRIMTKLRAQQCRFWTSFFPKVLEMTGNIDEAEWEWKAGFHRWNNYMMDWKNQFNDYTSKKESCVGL
Test: Inhibition of human BChE using butyrylthiocholine iodide as substrate preincubated for 10 mins before substrate addition after 15 mins by Ellman's method
# pIC50 per record follows
Schema: pIC50 number; meaning minus log10 of the concentration expressed in molar units.

Example compounds with recorded pIC50:
Input "COc1ccc(/C=C/C(=O)Nc2cc(OC)c(OC)c(OC)c2)cc1O" . Output pIC50: 5.12

Input "CN(C)C(=O)Oc1cccc([N+](C)(C)C)c1" . Output pIC50: 4.31

Input "COc1cccc(/C=C/C(=O)Nc2cc(OC)c(OC)c(OC)c2)c1O" . Output pIC50: 5.28

Input "COc1cc(NC(=O)/C=C/c2cccc(OCc3ccccc3)c2)cc(OC)c1OC" . Output pIC50: 5.41

Input "COc1cc(NC(=O)/C=C/c2c(F)cccc2Cl)cc(OC)c1OC" . Output pIC50: 5.88

---
Input "COc1cc(NC(=O)/C=C/c2cccc(OC(C)=O)c2)cc(OC)c1OC" . Output pIC50: 5.90

Input "COc1cc(NC(=O)/C=C/c2ccc(NOC(C)=O)cc2)cc(OC)c1OC" . Output pIC50: 5.41

---

# inhibition per record follows
Molecular target: Cholinesterase (Homo sapiens, UniProt P06276)
Test: Inhibition of human BChE using butyrylthiocholine iodide as substrate preincubated for 10 mins before substrate addition after 15 mins by Ellman's method
Parameters: concentration or dose not given beside the values
// units = %; emit number, no label

Input "C=CCOc1ccc(/C=C/C(=O)Nc2cc(OC)c(OC)c(OC)c2)cc1" . Output inhibition: 32.6

Input "COc1cccc(/C=C/C(=O)Nc2cc(OC)c(OC)c(OC)c2)c1" . Output inhibition: 41.8

Input "COc1cc(/C=C/C(=O)Nc2cc(OC)c(OC)c(OC)c2)ccc1OC(C)=O" . Output inhibition: 31.1

Input "COc1cc(NC(=O)/C=C/c2cc(O)ccc2O)cc(OC)c1OC" . Output inhibition: 36.2

Input "C=CCOc1ccccc1/C=C/C(=O)Nc1cc(OC)c(OC)c(OC)c1" . Output inhibition: 24.8

---

Target: Acetylcholinesterase (Electrophorus electricus)
quantity-name: IC50

Example compounds with recorded IC50:
// compound "COc1cc(/C=C/C(=O)Nc2cc(OC)c(OC)c(OC)c2)ccc1OC(C)=O" , assay Acetylcholinesterase (Electrophorus electricus), IC50 value: 4.98 µM

// compound "CN(C)C(=O)Oc1cccc([N+](C)(C)C)c1" , assay Acetylcholinesterase (Electrophorus electricus), IC50 value: 22 µM

// compound "COc1cc(NC(=O)/C=C/c2ccccc2OCc2ccccc2)cc(OC)c1OC" , assay Acetylcholinesterase (Electrophorus electricus), IC50 value: 0.29 µM

// compound "COc1cccc(/C=C/C(=O)Nc2cc(OC)c(OC)c(OC)c2)c1" , assay Acetylcholinesterase (Electrophorus electricus), IC50 value: 12.9 µM

---
// compound "COc1cc(/C=C/C(=O)Nc2cc(OC)c(OC)c(OC)c2)ccc1OCc1ccccc1" , assay Acetylcholinesterase (Electrophorus electricus), IC50 value: 12.6 µM

// compound "C=CCOc1ccccc1/C=C/C(=O)Nc1cc(OC)c(OC)c(OC)c1" , assay Acetylcholinesterase (Electrophorus electricus), IC50 value: 1.41 µM

// compound "COc1cc(NC(=O)/C=C/c2ccc(NOC(C)=O)cc2)cc(OC)c1OC" , assay Acetylcholinesterase (Electrophorus electricus), IC50 value: 12.5 µM

// compound "COc1cc(NC(=O)/C=C/c2cccc([N+](=O)[O-])c2)cc(OC)c1OC" , assay Acetylcholinesterase (Electrophorus electricus), IC50 value: 3.24 µM

// compound "COc1ccc(/C=C/C(=O)Nc2cc(OC)c(OC)c(OC)c2)cc1O" , assay Acetylcholinesterase (Electrophorus electricus), IC50 value: 4.22 µM

// compound "COc1cc(NC(=O)/C=C/c2ccc(OCc3ccccc3)cc2O)cc(OC)c1OC" , assay Acetylcholinesterase (Electrophorus electricus), IC50 value: 1.59 µM

// compound "COc1cccc(/C=C/C(=O)Nc2cc(OC)c(OC)c(OC)c2)c1O" , assay Acetylcholinesterase (Electrophorus electricus), IC50 value: 6.22 µM

// compound "COc1cc(NC(=O)/C=C/c2ccc(OCc3ccccc3)cc2)cc(OC)c1OC" , assay Acetylcholinesterase (Electrophorus electricus), IC50 value: 3.72 µM

---

Biological target: Cholinesterase (Homo sapiens)
Test: Inhibition of human BChE using butyrylthiocholine iodide as substrate preincubated for 10 mins before substrate addition after 15 mins by Ellman's method
Parameters: concentration or dose not given beside the values
Outcome label depends on inhibition relative to 30%: at/above gives met, below gives not met.

Some solved entries appear below for comparison.
## Input Exam item: decide whether the reported inhibition for "COc1cc(NC(=O)/C=C/c2ccc(OCc3ccccc3)cc2)cc(OC)c1OC" is at least 30%.
## Output met

## Input Exam item: decide whether the reported inhibition for "COc1cc(/C=C/C(=O)Nc2cc(OC)c(OC)c(OC)c2)ccc1OCc1ccccc1" is at least 30%.
## Output met

## Input Exam item: decide whether the reported inhibition for "COc1cc(NC(=O)/C=C/c2ccc(O)cc2O)cc(OC)c1OC" is at least 30%.
## Output not met

## Input Exam item: decide whether the reported inhibition for "COc1cc(NC(=O)/C=C/c2ccc(OCc3ccccc3)cc2O)cc(OC)c1OC" is at least 30%.
## Output not met

## Input Exam item: decide whether the reported inhibition for "COc1cc(NC(=O)/C=C/c2ccc(OC(C)=O)cc2)cc(OC)c1OC" is at least 30%.
## Output met

## Input Exam item: decide whether the reported inhibition for "COc1ccc(/C=C/C(=O)Nc2cc(OC)c(OC)c(OC)c2)cc1[N+](=O)[O-]" is at least 30%.
## Output not met

## Input Exam item: decide whether the reported inhibition for "COc1cc(NC(=O)/C=C/c2ccc(Cl)cc2)cc(OC)c1OC" is at least 30%.
## Output not met

## Input Exam item: decide whether the reported inhibition for "COc1cc(NC(=O)/C=C/c2cccc([N+](=O)[O-])c2)cc(OC)c1OC" is at least 30%.
## Output not met

## Input Exam item: decide whether the reported inhibition for "COc1ccc(/C=C/C(=O)Nc2cc(OC)c(OC)c(OC)c2)cc1OCc1ccccc1" is at least 30%.
## Output met

## Input Exam item: decide whether the reported inhibition for "COc1cc(NC(=O)/C=C/c2c(O)cccc2[N+](=O)[O-])cc(OC)c1OC" is at least 30%.
## Output met

---
## Input Exam item: decide whether the reported inhibition for "COc1cc(NC(=O)/C=C/c2cccc(O)c2O)cc(OC)c1OC" is at least 30%.
## Output met

## Input Exam item: decide whether the reported inhibition for "COc1cc(NC(=O)/C=C/c2ccc(O)c(O)c2)cc(OC)c1OC" is at least 30%.
## Output met

## Input Exam item: decide whether the reported inhibition for "COc1cc(NC(=O)/C=C/c2ccccc2OCc2ccccc2)cc(OC)c1OC" is at least 30%.
## Output met

Reference for the values: ChEMBL document CHEMBL3232752
